The origin of these recorded values is patent US20250019450A1.

Biological target: T1, cyno IL-12RB1 with C-terminal FLAG tag, transiently expressed on HEK-293T cells (cyno, UniProt A0A2K5VWV1 24-662)
T1 construct: whole, on cells
Experiment: FACS, periplasmic extract, HEK-293T
property_measured: FOB (fold)
Dear colleague, please return just the value in fold, with no unit written.

Entry VHH54B1 (VHH) VHH: QVQLVESGGGLVQAGGSLRLSCAASGGPFSGYVMGWFRQVSGKEREFVAGITGISSTYFADSVKGRFTISRDNAKNMVYLQMNSLKPEDTAVYYCAAVNSFGVIPTSPNGMDYWGKGTLVTVSS — recorded FOB = 19

Entry VHH25B1 (VHH) VHH: QVQLQESGGALVQPGGSLRLSCVVSGFTSDYFAIGWFRQAPGKEREGVSCIGSSDGSTIYSDSVKGRFTISRDNAKNTVYLQMNSLKPEDTGVYYCALDRGRRTIIGYACYATMKYWGKGTPVTVSS — recorded FOB = 121

In plain terms, VHH108B1 (VHH) VHH: EVQLVESGGGLVQPGGSLTLSCTASGFRFSDRSMGWYRQAPGKQRELVAAITVGGSTNYADSVKGRFTISRDNAKNTVYLQMNSLKPEDTALYYCNRRYPPDDYWGQGTQVTVSS has a documented FOB of 184

Record VHH276B1 (VHH) VHH: QVQLVESGGGLVQAGASLRLSCAASGRTFSSYAMGWFRQAPGKEREFVAAISGGTPNNIYYTNYKDAVRGRFTISRDNAKNTVYLQMSSLKPEDTAVYYCGATMGRYWNTGGYDYWGQGTQVTVSS . Reported FOB: 24

Looking up VHH67B1 (VHH) VHH: QVQLVESGGGLVQAGGSLRLSCAASARIFNSYAVAWFRQTPGKEREFVASISWSGGSTNYADSVKGRFTISRDNAKNTVFLQMNSLKPADTAVYYCAADRNYYPSVLGKYTYWGQGTQVTVSS , I found its FOB recorded as 82

For VHH187B1 (VHH) VHH: EVQLVESGGGLVQPGGSLRLSCAASGFTLDYYAIGWFRQAPGKEREGVSCISSSDRSTWYADSVKGRFTISRDNAKNTVYLQMHSLKPEDTAVYYCATPCYSDYDPEGYEYDYWGQGTQVTVSS the binder record lists FOB as 42

Just so you know, measured FOB for VHH115B1 (VHH) VHH: QVQLVESGGGLVQAGGSLRLSCLASGRTSNYFMGWFRQAPGKEREFVAAISRSGGGTWYADSVKGRFAISRDNAKNTVNLQMNSLKREDTAVYYCAADRRTGTSVYTVDEYDYWGQGTQVTVSS came out at 62

The binder listed as VHH58B1 (VHH) VHH: QVQLVESGGGLVQAGGSLRLSCAAPGRYAVGWFRQAPGKEYEFVAAITVSGGSKYYEDSVKGRFAISRDNAKNTVYLQMNSLKAEDTAVYYCAARTPKFGSGWYNRRGEYDYWGQGTQVTVSS has a reported FOB of 88

Measured FOB, VHH104B1 (VHH) VHH: EVQLVESGGGLVQPGGSLRLFCAASRSIFNINIMGWYRQAPGKQREWLASITSGGSTFYADSVKDRFTISRDSVKNTVYLQMNSLKPEDTAAYYCNRYRSVPLNTVYPWGQGTLVTVSS : 161

Summary for this binder, VHH172B1 (VHH) VHH: QVQLVESGGGLVQAGGSLRLSCAAPGRYAVGWFRQAPGKEYEFVAAITVSGGSKYYEDSVKGRFTISRDNAKNTVYLEMNSLKAEDTAVYYCAARTPKFGSGWYNRRGEYDYWGQGTQVAVSS : FOB is 50

Summary for this binder, VHH86B1 (VHH) VHH: QVQLVESGGGLMQAGGSLRLSCALSRGIFSAYAMGWFRQVQGKEREFVSGISRSGSTTDYVDTAKGRFTISRDNARDTVYLQMNSLKPEDTAVYYCAAVTGTFPSSTYHNANAYHHWGQGTQVTVSS : FOB is 64

Quick note, FOB for VHH321B1 (VHH) VHH: QVQLVESGGGLVQPGGSLRLSCIASGFTFSDYAMKWVRRPPGKGLEWVSVIDSEGPTIKYSDAVRGRFTISRDNAKNTLYLQMNSLKPEDTAVYYCAKSNGGSAFSSVLYTDRGQGTQVTVSS landed at 93

The binder identified as VHH245B1 (VHH) VHH: QVQLQESGGGLVQAGGSLRLSCAASGSIASINAMGWYRQAPGKQRDFVARIQLSGQTSYAHSVRGRFTISRDNAKNTVYLQMNNLKPEDTAVYVCAASNTGSLYGLRNYWGQGTQVTVSS registered its FOB at 36

Form: binder = VHH136B1 (VHH) VHH: QVQLQESGGGLVQAGGSLRLSCAAPGRYAVGWFRQAPGKEYEFVAAITVSGGSKYYEDSVKGRFTISRDNAKNTVYLEMNSLKAEDTAVYYCAARTPKFGSGWYNRRGEYDYWGQGTQVTVSS ; FOB = 88

Entry VHH41B1 (VHH) VHH: EVQLVESGGGLVQAGGSLRVACAASGRTFSTYAMAWFRQAPGKEREFVAHILWSGGSTVYPDSVRGRFTISRDNAKNTVYLQMNSLKPEDTAVYYCAQKSGRQVYRIDSWDSFDYWGQGTSVTVSS — recorded FOB = 19
